Reference source: ChEMBL document CHEMBL1201862

Each entry below carries its recorded IC50.
Biological target: Fatty acid synthase (Homo sapiens)
Sequence (P49327 whole entry): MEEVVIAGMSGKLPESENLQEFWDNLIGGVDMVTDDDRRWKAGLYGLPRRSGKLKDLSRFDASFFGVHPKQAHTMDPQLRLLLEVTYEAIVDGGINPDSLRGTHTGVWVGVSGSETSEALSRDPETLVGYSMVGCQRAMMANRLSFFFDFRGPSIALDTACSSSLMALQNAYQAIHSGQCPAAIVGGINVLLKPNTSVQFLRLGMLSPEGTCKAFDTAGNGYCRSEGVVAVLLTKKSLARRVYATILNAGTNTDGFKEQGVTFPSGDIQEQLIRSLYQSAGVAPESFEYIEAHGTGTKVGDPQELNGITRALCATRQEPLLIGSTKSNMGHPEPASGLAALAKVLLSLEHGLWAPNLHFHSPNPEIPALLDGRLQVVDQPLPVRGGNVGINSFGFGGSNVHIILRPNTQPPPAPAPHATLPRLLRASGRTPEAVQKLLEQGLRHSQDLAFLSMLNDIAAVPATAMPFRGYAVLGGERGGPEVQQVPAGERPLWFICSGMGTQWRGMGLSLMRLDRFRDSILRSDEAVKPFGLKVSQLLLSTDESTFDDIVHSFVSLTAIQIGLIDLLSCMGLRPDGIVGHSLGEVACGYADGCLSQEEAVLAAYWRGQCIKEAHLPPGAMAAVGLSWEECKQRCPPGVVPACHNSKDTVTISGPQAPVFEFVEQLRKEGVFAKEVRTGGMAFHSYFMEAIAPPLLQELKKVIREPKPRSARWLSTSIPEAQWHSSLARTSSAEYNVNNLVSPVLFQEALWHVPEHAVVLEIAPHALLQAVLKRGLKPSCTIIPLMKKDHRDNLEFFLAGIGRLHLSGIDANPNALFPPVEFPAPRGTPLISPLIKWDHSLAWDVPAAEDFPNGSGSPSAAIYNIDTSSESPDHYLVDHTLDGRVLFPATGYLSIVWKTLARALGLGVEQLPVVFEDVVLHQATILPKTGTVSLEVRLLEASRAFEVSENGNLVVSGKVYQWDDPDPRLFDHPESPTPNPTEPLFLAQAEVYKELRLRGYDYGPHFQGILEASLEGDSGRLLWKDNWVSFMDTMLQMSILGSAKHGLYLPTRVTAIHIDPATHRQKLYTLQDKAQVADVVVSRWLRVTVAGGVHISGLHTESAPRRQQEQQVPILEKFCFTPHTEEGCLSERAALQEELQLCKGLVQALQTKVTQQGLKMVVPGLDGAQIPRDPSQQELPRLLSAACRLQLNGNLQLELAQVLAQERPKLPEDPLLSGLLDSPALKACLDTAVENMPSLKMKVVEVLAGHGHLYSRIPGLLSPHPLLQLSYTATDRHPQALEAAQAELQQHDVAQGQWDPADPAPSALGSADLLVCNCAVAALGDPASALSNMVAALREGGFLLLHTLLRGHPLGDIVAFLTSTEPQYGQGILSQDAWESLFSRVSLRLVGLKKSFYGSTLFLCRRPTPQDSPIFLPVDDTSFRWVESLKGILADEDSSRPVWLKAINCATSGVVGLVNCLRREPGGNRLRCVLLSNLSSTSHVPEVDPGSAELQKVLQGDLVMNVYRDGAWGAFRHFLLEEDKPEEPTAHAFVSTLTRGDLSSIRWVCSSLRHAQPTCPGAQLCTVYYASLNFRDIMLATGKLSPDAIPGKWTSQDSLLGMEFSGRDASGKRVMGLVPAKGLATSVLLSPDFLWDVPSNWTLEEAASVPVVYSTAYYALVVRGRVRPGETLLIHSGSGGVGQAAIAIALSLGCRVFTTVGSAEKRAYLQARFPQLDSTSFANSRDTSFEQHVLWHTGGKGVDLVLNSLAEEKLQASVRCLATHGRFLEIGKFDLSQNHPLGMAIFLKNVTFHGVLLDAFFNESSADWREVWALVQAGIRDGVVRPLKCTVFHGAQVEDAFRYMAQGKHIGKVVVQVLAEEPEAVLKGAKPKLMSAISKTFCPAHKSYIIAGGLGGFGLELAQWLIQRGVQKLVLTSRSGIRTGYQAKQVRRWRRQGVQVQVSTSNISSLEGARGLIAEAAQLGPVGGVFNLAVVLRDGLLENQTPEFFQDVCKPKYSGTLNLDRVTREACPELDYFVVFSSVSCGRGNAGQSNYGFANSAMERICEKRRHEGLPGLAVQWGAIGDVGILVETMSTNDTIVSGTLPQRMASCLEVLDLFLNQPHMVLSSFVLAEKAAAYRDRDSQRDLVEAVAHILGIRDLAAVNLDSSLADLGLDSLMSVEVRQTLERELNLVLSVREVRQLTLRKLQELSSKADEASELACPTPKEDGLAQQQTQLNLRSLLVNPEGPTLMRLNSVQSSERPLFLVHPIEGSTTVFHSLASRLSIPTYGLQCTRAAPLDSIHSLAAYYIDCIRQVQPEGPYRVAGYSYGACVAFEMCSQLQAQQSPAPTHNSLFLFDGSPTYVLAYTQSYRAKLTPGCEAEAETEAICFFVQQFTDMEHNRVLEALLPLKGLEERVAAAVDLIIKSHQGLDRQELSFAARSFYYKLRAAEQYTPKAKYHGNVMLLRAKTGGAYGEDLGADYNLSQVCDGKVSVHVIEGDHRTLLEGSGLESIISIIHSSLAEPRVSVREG
Assay: inhibition of human FAS-TE enzyme activity – biochemical, endpoint fluorescence intensity, uHTS hits, dose response (AID 624327);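 note: fluorescence from hydrolysis of an O-methyl fluorescein acyl ester substrate by the enzyme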
Type: functional
The source made the active and inactive calls. Cut-off read from the data, not from the text of the source: active = IC50 of 20 µM or less and inactive = more.
Assay readout: IC50

- Compound string: "COc1ccc2c(c1)C(=O)N1[C@H]3c4cc(Cl)ccc4OC[C@@H]3[C@H](c3ccccc3)[C@]1(C)C(=O)N2"
  Observed: "16.5 µM (active)"
- Compound string: "C[C@@H]1CN([C@H](C)CO)C(=O)c2cc(NC(=O)Nc3ccc(F)cc3)ccc2O[C@@H](C)CCCCO[C@H]1CN(C)S(=O)(=O)c1cccs1"
  Observed: "5.17 µM (active)"
- Compound string: "C=CCC[C@@H](Cc1ccc(F)cc1)C(=O)OC[C@H](Cc1c[nH]c2ccccc12)NC(=O)[C@H](CC=C)CC(=O)NCCO"
  Observed: "10.9 µM (active)"
- Compound string: "CCCC(=O)OCCNc1cc(Sc2nccn2C)c2nonc2c1[N+](=O)[O-]"
  Observed: "5.11 µM (active)"
